Cited source for all entries: PubChem BioAssay (NCI)

- System: SNB-75 CNS
- assayMethodText: NCI-60 one-dose screen, 48 h
- testContext: 10 µM unless noted
This is part of a sample that, as a whole, favours compounds with a hit. Of some 83,000 tested, about 20% had one in any assay. Calls of active or inactive are those of the source. Rule for the calls: active = growth percent below 10; inactive = the rest.
Just give me one of these, please: label 1 for active, label 0 for inactive

// below: answered compounds
Q. Write down the call the test reported for this compound. Item: CCOC(=O)C1=C(C)Nc2nc3ccccc3n2C1c1ccccc1 (stereo not given)
A. label 0

Q. Write down the call the test reported for this compound. Item: `O=C1c2c(c3c4cc(O)ccc4oc3c3[nH]c4ccccc4c23)C(=O)N1O`
A. label 1

Q. Write down the call the test reported for this compound. Item: `COc1cnc2c(c1)C(=O)c1c-2n(CCCn2ccnc2)c(=O)c2cc(OC)c(OC)cc12`
A. label 0

Q. Write down the call the test reported for this compound. Item: `Cn1cc(-c2nn3cc(-c4cccnc4)nc3s2)c2cc(F)ccc21`
A. label 0

Q. Write down the call the test reported for this compound. Item: `C=C1C(=O)O[C@@H]2C[C@@H](C)/C=C\C(=O)[C@](C)(OC(C)=O)C[C@H](OC(=O)/C(C)=C\C)[C@@H]12`
A. label 0

Q. Write down the call the test reported for this compound. Item: `O=c1cc(-c2ccccc2)nc2sc(-c3c[nH]c4ccc(Br)cc34)nn12`
A. label 0

Next:
Q. Write down the call the test reported for this compound. Item: CN(C)C(=O)C1=NC(CO)C(=O)N(c2ccc(Cl)cc2)N1 (stereo not given)
A. label 0

Q. Write down the call the test reported for this compound. Item: `C=C1C(=O)O[C@@H]2C[C@@H](C)CCC(=O)[C@](C)(OC(C)=O)C[C@H](OC(=O)/C(C)=C\C)[C@@H]12`
A. label 0

Q. Write down the call the test reported for this compound. Item: `COc1ccc(NC2=C(Cl)C(=O)C(C)=C(C)C2=O)cc1`
A. label 0

Q. Write down the call the test reported for this compound. Item: `COc1ccc(-c2cc(-c3ccc(Cl)cc3)nc3nc(N)nn23)cc1`
A. label 0

###

- Tested on: TK-10 renal
- assayMethodText: NCI-60 one-dose screen, 48 h (100 = growth as untreated, 0 = no growth, -100 = all killed)
- testContext: 10 µM unless noted
This is part of a sample that, as a whole, favours compounds with a hit. Of some 83,000 tested, about 20% had one in any assay.
Y means recorded growth is 90% or above; N means it is below 90%.

// below: answered molecules
Q. Answer whether growth of `CN1CCN(c2ccc3c(c2)nc(NNC(=O)c2ccncn2)c2cccn23)CC1` is greater than or equal to 90%.
A. N

Q. Answer whether growth of `CN1CCN(c2ccc(NC(=O)Nc3ccc4c(ccn4-c4cccc(C(N)=O)n4)c3)cc2C(F)(F)F)CC1` is greater than or equal to 90%.
A. Y

Q. Answer whether growth of `O=C1[C@H]2Cc3c([nH]c4ccccc34)[C@@H](c3ccc(Cl)cc3)N2C(=O)CN1C1CCN(Cc2c(Cl)cccc2Cl)CC1` is greater than or equal to 90%.
A. Y

Next:
Q. Answer whether growth of `O=C(/C=C1\C=CN(CCCCCCF)c2ccccc21)n1ccc2ccccc21` is greater than or equal to 90%.
A. Y

Q. Answer whether growth of C[C@@H]1C[C@H]2C(=O)OCC(NC(=O)[C@H](Cc3cc(F)cc(F)c3)NC(=O)Nc3ccc(Cl)cc3F)C(=O)N3CCC[C@H]3C(=O)N3CCCC[C@H]3C(=O)N[C@@H](C)C(=O)N2C1 (stereo partly drawn) is greater than or equal to 90%.
A. N

Q. Answer whether growth of `CCCCCCNC(=O)Oc1ccc(/C(=C(/C)c2ccc(OC)cc2)c2ccc(OCCN3CCCC3)cc2)cc1` is greater than or equal to 90%.
A. Y

Q. Answer whether growth of `COC(=O)Nc1ccc(-c2nc(-c3cccc(O)c3)c(-c3ccnc(Br)c3)[nH]2)cc1` is greater than or equal to 90%.
A. N

###

- System: SK-OV-3 ovarian
- assayMethodText: NCI-60 one-dose screen, 48 h
- testContext: 10 µM unless noted
This is part of a sample that, as a whole, favours compounds with a hit. Of some 83,000 tested, about 20% had one in any assay. Activity calls are given as the source filed them. The calls were made as follows: active = growth percent below 10; inactive = the rest.
Just give me one of these, please: 1 (yes) (active), 0 (no) (inactive)

// below: answered molecules
Q. Write down the call the test reported for this molecule. Item: `Clc1ccc(-c2csc(Nc3cccc(Nc4csc(-c5ccc(Cl)cc5)n4)c3)n2)cc1`
A. 0 (no)

Q. Write down the call the test reported for this molecule. Item: `c1ccc(-c2n(Cc3ccc4ccccc4c3)c3c4ccccc4c4ccccc4c3[n+]2Cc2ccc3ccccc3c2)cc1`
A. 1 (yes)

Next:
Q. Write down the call the test reported for this molecule. Item: `C=CCn1c(SCC(=O)Nc2ccc(OC)cc2)nnc1-c1ccc(Cl)cc1`
A. 0 (no)

Q. Write down the call the test reported for this molecule. Item: `O=S(=O)(Nc1cc(Cl)cc(Cl)c1)c1ccc(-c2cnc(C3CC3)o2)cc1`
A. 0 (no)

Q. Write down the call the test reported for this molecule. Item: `CCN(CC)Cc1c(-c2cccc(OC(F)(F)F)c2)[nH]c2ccc(N3CCCC3)cc2c1=O`
A. 0 (no)

Q. Write down the call the test reported for this molecule. Item: `Cc1ccc(S(=O)(=O)N/N=C/c2cn(-c3ccc(F)cc3)nc2-c2ccc(S(C)(=O)=O)cc2)cc1`
A. 0 (no)

Q. Write down the call the test reported for this molecule. Item: Cn1c(SC(C(=O)Nc2ccc(F)cc2)c2ccccc2)nc2ccccc2c1=O (stereo not drawn)
A. 0 (no)

Q. Write down the call the test reported for this molecule. Item: `CCCCCCNC(=O)Oc1ccc(/C(=C(/C)c2ccc(Cl)cc2)c2ccc(OCCN3CCCC3)cc2)cc1`
A. 0 (no)

Q. Write down the call the test reported for this molecule. Item: CC1(C)CC[C@]2(C(=O)O)CC[C@]3(C)C(=CCC4[C@@]5(C)C[C@@H](O)[C@@H]6OC(c7ccccc7O)OC[C@@]6(C)C5CC[C@]43C)C2C1 (stereo partly drawn)
A. 0 (no)

###

- Tested on: HS 578T breast
- assayMethodText: NCI-60 one-dose screen, 48 h (100 = growth as untreated, 0 = no growth, -100 = all killed)
- testContext: 10 µM unless noted
About 83,000 compounds went through this panel and 20% of them were active in at least one assay; those are over-represented in the sample as a whole. Activity calls are given as the source filed them. The calls were made as follows: active = growth percent below 10; inactive = the rest.
I'd be grateful if you could share measured growth for these entries.

Working through the 3 compounds below one at a time, give growth for each.
1. C=C1C(=O)O[C@@H]2C[C@@H](C)/C=C\C(=O)[C@](C)(OC(C)=O)C[C@H](OC(=O)/C(C)=C\C)[C@@H]12
2. Cn1cc(-c2nn3cc(-c4ccncc4)nc3s2)c2cc(Cl)ccc21
3. CS(=O)(=O)c1ccc2c(c1)c1c(n2S(=O)(=O)c2ccc(Cl)cc2)CCCC1

A.
["19.1% (inactive)", "49.8% (inactive)", "0.523% (active)"]

Working through the 6 compounds below one at a time, give growth for each.
1. C#Cc1ccc(NC(=O)c2ccc(/C=C/C(=O)c3nccn3C)cc2)c(F)c1
2. CC(=O)Oc1ccc(CCN2C(=O)CSC2=S)cc1
3. Nc1ccc(-c2nnc(SCc3ccc(O)c4ncccc34)n2-c2ccccc2)cc1
4. CC(C)Sc1nc(NC2CC2)c(C#N)c(-c2ccccc2)n1
5. CC1CCc2c(sc3nc(SCC(=O)N/N=C/c4cccc(O)c4O)n(-c4ccccc4)c(=O)c23)C1 (stereo not given)
6. NS(=O)(=O)Oc1ccc2nc(Nc3ccc(F)c(F)c3)ccc2c1

A.
1: 51.4% (inactive); 2: 100% (inactive); 3: 5.08% (active); 4: 68.7% (inactive); 5: 95.8% (inactive); 6: 104% (inactive)

Working through the 3 compounds below one at a time, give growth for each.
1. O=C1c2c(c3c4cc(Br)ccc4[nH]c3c3ccc4ccccc4c23)C(=O)N1CCN1CCNCC1
2. CCOC(=O)/C=c1\sc2n(c1=O)C1C(NN=2)N(CC)C(=O)N1CC (stereo not given)
3. COc1ccc(C2C(C#N)=C(N)Oc3c2sc2ccc(C)cc32)cc1 (stereo not given)

A.
1: 115% (inactive); 2: 61.5% (inactive); 3: 3.28% (active)

Working through the 7 compounds below one at a time, give growth for each.
1. Cc1cc(=O)n2nc(-c3c[nH]c4ccccc34)sc2n1
2. CCOC(=O)c1c(Nc2ccccc2)nn2c(-c3ccc(OC)c(OC)c3)ccnc12
3. Cc1ccc(-c2cc(-c3ccc(N(C)C)cc3)n3c(n2)nc2ccccc23)cc1
4. CC(=O)c1sc(Nc2cccc(Nc3nc(C)c(C)s3)c2)nc1C
5. C=C(C)C(=O)O[C@H]1C[C@@]2(C)OC(=CC2=O)/C(C)=C\[C@H]2OC(=O)C(=C)[C@H]12
6. CN1CCN(c2ccc3c(C(N)=O)c(NC(=O)c4ccc(C(C)(C)C)cc4)sc3c2)CC1
7. COc1ccc(/C=C/C(=O)c2nnn(-c3ccc(C(=O)O)cc3)c2C)cc1OC

A.
["96.4% (inactive)", "49.4% (inactive)", "83% (inactive)", "52.7% (inactive)", "21.9% (inactive)", "91.2% (inactive)", "102% (inactive)"]

Q. Consider the compound shown here: `Oc1ccc(CSc2nnc(-c3ccncc3)o2)c2cccnc12` What is its recorded growth?
A. 5.36% (active)
